- assay_target: DCAF15 (Homo sapiens, UniProt Q66K64)
observed_property: Ki

Record NS(=O)(=O)c1ccc(S(=O)(=O)Nc2cccc3c(Cl)c[nH]c23)cc1 [indisulam] / DCAF15 (Homo sapiens, UniProt Q66K64), Ki recorded as > 50 µM

Hello, the source for this data is paper PMC6917914, in case you need it.
